Biological target: Fyn (UniProt P06241)
Sequence (P06241 whole entry, looked up): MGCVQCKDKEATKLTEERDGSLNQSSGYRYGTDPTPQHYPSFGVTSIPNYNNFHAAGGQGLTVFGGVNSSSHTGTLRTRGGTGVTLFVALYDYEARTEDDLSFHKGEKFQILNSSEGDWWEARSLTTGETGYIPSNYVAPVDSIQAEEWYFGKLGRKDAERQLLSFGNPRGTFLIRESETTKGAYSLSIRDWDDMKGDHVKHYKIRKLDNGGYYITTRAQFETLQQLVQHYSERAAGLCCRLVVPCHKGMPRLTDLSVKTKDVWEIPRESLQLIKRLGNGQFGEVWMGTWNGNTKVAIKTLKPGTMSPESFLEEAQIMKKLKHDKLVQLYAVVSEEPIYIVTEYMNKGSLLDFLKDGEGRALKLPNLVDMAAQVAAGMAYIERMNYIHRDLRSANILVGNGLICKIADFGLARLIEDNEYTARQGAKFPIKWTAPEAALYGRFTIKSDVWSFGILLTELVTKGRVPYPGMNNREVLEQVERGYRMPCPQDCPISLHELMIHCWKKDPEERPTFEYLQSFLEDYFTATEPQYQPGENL
Test: phosphorylation enrichment, bacterial display (enrichment ratio); higher = better substrate or ligand; peptides without Tyr show the background;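 also: 11-residue human phosphosite peptides and single-mutation variants displayed on the E. coli surface, counted by deep sequencing, each peptide's frequency after selection divided by its frequency in the unselected input library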;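 also: frequency after pTyr selection over input frequency; kinase dosed for 20-30% of maximal phosphorylation in three min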
Label condition met for high-side phosphorylation enrichment (at or above 0.4) and condition not met for low-side phosphorylation enrichment (below it).

Worked examples, 10 sequences total:
GNLLIYTEFGN [HGD_Y166_K171N] | condition met
LLANAYIYVVQ [L1CAM_Y418] | condition met
VLTPKYRGGGG [HBA1_Y141_S139P] | condition not met
LERYIYNPEEF [HLA-DPB1_Y59_R61P] | condition met
HFGCVYHGTLL [MET_Y1093] | condition met
TFRPPYYHRNC [HGD_Y333] | condition met
IRGNMYFENSF [EGFR_Y112_YF] | condition met
MDNQEYKDAYK [BRDT_Y331] | condition met
LSIWPYLQKID [MFSD8_Y63_M58L] | condition met
EQKKYYNAVKK [SCN5A_Y1495_M1498V] | condition not met

Is the recorded value of phosphorylation enrichment equal to or greater than 0.4 for this sequence? MGRVKYGAFIN [GLB1_Y485_N484K_YF]
condition not met

Is the recorded value of phosphorylation enrichment equal to or greater than 0.4 for this sequence? PFDAEYGGGGG [AKR1B10_Y316_N313D]
condition met

Is the recorded value of phosphorylation enrichment equal to or greater than 0.4 for this sequence? SDYYAYSPVRE [H6PD_Y449]
condition met

Is the recorded value of phosphorylation enrichment equal to or greater than 0.4 for this sequence? PNRILYRDFRQ [MYH7_Y715_G716R]
condition not met

---

sequences and their reported phosphorylation enrichment
System: c-Src
Assay: phosphorylation enrichment, bacterial display (enrichment ratio); higher = better substrate or ligand; peptides without Tyr show the background
Give your answer as a number; write no unit.

Consider the worked cases shown below.
VNFDDYTVNLG [GFPT1_Y367] | 1.19
PLQKIYNYNVL [SLC4A1_Y553_T552I] | 1.32
ILTLKYPIERG [ACTA1_Y71_H75R] | 0.479
SDVLSYGVTMW [ZAP70_Y525_W523L] | 0.531
PMFTKYGNGLL [RPGRIP1L_Y196_S199G] | 0.79

Entry MPIPMYDGSQA [CARMIL1_Y637_A639G] : reported phosphorylation enrichment = ?
0.44

Entry QRIHDYYEHRY [HCN4_Y554] : reported phosphorylation enrichment = ?
0.478

Entry PFDAEYGGGGG [AKR1B10_Y316_N313D] : reported phosphorylation enrichment = ?
0.918

Entry GMSQAYSFSQR [DES_Y5_S7F] : reported phosphorylation enrichment = ?
0.495

Entry DRSSLYLVAGP [KIAA1614_Y1083_N1078D] : reported phosphorylation enrichment = ?
0.749

Entry ARRMEYLASQK [FGFR2_Y616_G613R] : reported phosphorylation enrichment = ?
0.382

Entry ELRGTYTSLQQ [KIF3C_Y574] : reported phosphorylation enrichment = ?
1.39

Entry NTDETYCIDNE [TUBB2B_Y200] : reported phosphorylation enrichment = ?
0.809

---

Target: MERTK (UniProt Q12866)
Sequence (Q12866 whole entry, looked up): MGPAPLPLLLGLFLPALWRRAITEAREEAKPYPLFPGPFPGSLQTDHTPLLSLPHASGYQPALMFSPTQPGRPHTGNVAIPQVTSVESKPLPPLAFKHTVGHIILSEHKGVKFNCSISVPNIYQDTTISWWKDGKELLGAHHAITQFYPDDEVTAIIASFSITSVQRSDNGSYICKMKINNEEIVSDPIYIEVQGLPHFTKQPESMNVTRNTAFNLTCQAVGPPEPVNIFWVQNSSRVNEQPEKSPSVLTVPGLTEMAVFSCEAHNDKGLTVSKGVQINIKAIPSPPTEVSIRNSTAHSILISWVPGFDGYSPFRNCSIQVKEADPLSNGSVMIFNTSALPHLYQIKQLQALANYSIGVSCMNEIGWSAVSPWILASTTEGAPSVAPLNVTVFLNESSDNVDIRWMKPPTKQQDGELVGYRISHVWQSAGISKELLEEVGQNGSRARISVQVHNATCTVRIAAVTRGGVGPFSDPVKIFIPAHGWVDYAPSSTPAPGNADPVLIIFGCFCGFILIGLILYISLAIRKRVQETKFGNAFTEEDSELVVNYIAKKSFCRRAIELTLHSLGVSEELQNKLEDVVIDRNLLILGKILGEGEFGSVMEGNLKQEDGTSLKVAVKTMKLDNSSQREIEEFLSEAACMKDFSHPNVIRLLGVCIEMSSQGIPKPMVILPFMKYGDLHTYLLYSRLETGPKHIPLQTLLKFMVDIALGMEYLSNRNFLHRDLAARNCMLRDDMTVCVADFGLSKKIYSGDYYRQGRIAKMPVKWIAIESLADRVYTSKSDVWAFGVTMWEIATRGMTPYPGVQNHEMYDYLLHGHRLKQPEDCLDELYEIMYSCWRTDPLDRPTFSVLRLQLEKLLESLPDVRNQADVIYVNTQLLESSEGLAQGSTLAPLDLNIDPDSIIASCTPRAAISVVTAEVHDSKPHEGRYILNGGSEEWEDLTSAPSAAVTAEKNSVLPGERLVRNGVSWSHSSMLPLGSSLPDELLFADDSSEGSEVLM
Experiment: phosphorylation enrichment, bacterial display (enrichment ratio); higher = better substrate or ligand; peptides without Tyr show the background
sequences and their reported phosphorylation enrichment
Give your answer as a number; write no unit.

Consider the worked cases shown below.
TVSTGYTQPQP [SARG_Y259_R258G] | 0.371
SVVAPYEPPEV [TP53_Y220_V218A] | 0.629
KQRKEYMHRRQ [IQGAP2_Y710] | 0.452
FVSLIYTNFEA [GSTP1_Y109_I105V_YF] | 5.37
GYRVCYTPDSR [PTPRF_Y451_Y450C] | 0.434

Entry QFPDIYAREEV [CRX_Y67_V66I_YF] : reported phosphorylation enrichment = ?
0.773
